B1: r4_43_TrROS_Hall (parent)
chain: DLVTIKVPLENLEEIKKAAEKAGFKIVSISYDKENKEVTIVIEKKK

# Variants of: B1
# assay-protocol: folding stability dG (cDNA display proteolysis); higher = more stable
# test-conditions: PBS, room temperature
Reported folding stability dG values for a set of variants
measurement-kind: folding stability dG (kcal/mol)

changes: K44L
measurement-kind: folding stability dG
assay-result: 3.96
--
changes: G23H
measurement-kind: folding stability dG
assay-result: 3.79
--
changes: A18N
measurement-kind: folding stability dG
assay-result: 3.5
--
changes: I26D
measurement-kind: folding stability dG
assay-result: 1.25
--
changes: L12N
measurement-kind: folding stability dG
assay-result: 2.46
--
changes: N11G
measurement-kind: folding stability dG
assay-result: 3.34
--
changes: V3F
measurement-kind: folding stability dG
assay-result: 4.06
--
changes: K33S
measurement-kind: folding stability dG
assay-result: 3.5
--
changes: T4L
measurement-kind: folding stability dG
assay-result: 3.46
--
changes: K33D
measurement-kind: folding stability dG
assay-result: 3.11
